test system: AncSZ; test: phosphorylation enrichment, bacterial display (enrichment ratio); higher = better substrate or ligand; peptides without Tyr show the background;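 also: 11-residue human phosphosite peptides and single-mutation variants displayed on the E. coli surface, counted by deep sequencing, each peptide's frequency after selection divided by its frequency in the unselected input library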;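 also: frequency after pTyr selection over input frequency; kinase dosed for 20-30% of maximal phosphorylation in three min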
READOUT LABEL: phosphorylation enrichment
Hey, just send me the number, nothing else.

Check out these entries, answers already filled in.
1) SLFPGYNFRFA [P2RX7_Y291_YF]
0.844
2) HRGHLYLAIEY [TEK_Y899_Y897H]
1.51
3) LCHELYNTIRD [PBRM1_Y54_V49L]
1.21
4) FVTSMYNEILM [TRPV1_Y310]
1.16
5) PLFSKYWPNHI [GREB1L_Y1560_R1558S_YF]
2.32
6) TDKLFYIYTSG [SLC27A4_Y243]
1.5

Prompt line: Lab note: need phosphorylation enrichment for ALCHFYKLNII [ETV6_Y402_R399C_YF] on AncSZ, anyone have it?
Response line: 1.19

###

biological target: FGFR3 (UniProt P22607); assay: phosphorylation enrichment, bacterial display (enrichment ratio); higher = better substrate or ligand; peptides without Tyr show the background
Sequence (P22607 whole entry, looked up): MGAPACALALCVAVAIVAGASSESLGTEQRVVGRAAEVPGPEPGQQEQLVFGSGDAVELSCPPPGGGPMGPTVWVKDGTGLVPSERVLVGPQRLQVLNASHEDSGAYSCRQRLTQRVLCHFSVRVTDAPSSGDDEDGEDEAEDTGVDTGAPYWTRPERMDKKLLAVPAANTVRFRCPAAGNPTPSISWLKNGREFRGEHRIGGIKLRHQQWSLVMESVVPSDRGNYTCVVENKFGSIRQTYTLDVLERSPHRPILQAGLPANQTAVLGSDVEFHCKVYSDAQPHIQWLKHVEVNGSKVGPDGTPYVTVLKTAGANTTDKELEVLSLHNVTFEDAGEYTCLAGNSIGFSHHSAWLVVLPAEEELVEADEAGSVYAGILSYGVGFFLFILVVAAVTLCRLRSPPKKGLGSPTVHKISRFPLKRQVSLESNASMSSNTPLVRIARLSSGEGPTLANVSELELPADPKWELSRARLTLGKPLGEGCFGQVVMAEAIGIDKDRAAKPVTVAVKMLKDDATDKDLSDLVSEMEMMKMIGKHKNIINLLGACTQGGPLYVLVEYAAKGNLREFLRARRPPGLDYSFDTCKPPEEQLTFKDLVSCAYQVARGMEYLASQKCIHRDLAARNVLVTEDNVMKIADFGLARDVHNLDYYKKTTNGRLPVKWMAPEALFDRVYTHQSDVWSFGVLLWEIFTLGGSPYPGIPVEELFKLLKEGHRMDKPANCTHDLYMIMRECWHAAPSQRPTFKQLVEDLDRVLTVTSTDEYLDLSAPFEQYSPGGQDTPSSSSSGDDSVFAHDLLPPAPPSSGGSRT
Use true when the recorded phosphorylation enrichment is no lower than 0.7; use false when it is lower.

1) KAPVDYIRKLQ [MITF_Y360_S357P]
false
2) NQKGKYFNVER [ANAPC4_Y469_R465Q]
false
3) EFTAGYNVKFD [GPX4_Y123_A120T]
false

Prompt line: Form field: phosphorylation enrichment at least 0.7? Entry: LEDDVYRKTCT [XPA_Y257_M256V]
Response line: true

Prompt line: Determine whether measured phosphorylation enrichment meets or exceeds 0.7 for FQQLFYLLQTN [IQGAP2_Y890_YF]
Response line: true

Prompt line: Given CHKRTYKVTGL , state whether its phosphorylation enrichment is at least 0.7.
Response line: false

Prompt line: Given YVGGFYGGCNE [CTSC_Y352] , state whether its phosphorylation enrichment is at least 0.7.
Response line: true

Prompt line: Check the entry FADIAYSYRHG [PAH_Y166_N167S] : does phosphorylation enrichment equal or exceed 0.7?
Response line: false

Prompt line: Hello, I need to know if REQREYLDQLN [CCDC88B_Y1277] has measured phosphorylation enrichment not below 0.7. Thanks!
Response line: false

Prompt line: Determine whether this sequence has phosphorylation enrichment no lower than 0.7: FPCSVYVPDEW [INSR_Y1011]
Response line: true

Prompt line: Record CTTIHSNYMCN [TP53_Y234_Y234S] ; criterion: phosphorylation enrichment no lower than 0.7. Met?
Response line: false

Prompt line: Confirm if phosphorylation enrichment reported for the sequence LDLPGYCLLRE [CCDC116_Y291_P293L] is 0.7 or above.
Response line: true

Prompt line: Form field: phosphorylation enrichment at least 0.7? Entry: EKEQNYDLTEV [ECD_Y448]
Response line: true

Prompt line: Determine whether this sequence has phosphorylation enrichment no lower than 0.7: ENFSEYQEISV [HEMGN_Y150_A154S]
Response line: true

Prompt line: Could you tell me if the measured phosphorylation enrichment of AIFEGYALPHA [ACTC1_Y171_P166A_YF] reaches 0.7 or more?
Response line: false

Prompt line: Evaluate TSESSYYKSLN [NGEF_Y288_A286S] : phosphorylation enrichment at minimum 0.7?
Response line: false

Prompt line: State whether the measured phosphorylation enrichment reaches 0.7, counting equality as reaching it, for KLPFPYDDPFS [GPX2_Y127_YF]
Response line: true

Prompt line: Record AEDKPYAELWT [MPI_Y46_M51T] ; criterion: phosphorylation enrichment no lower than 0.7. Met?
Response line: true

Prompt line: // inclusive: phosphorylation enrichment at least 0.7? input: KILPEYLSNWT [AIFM1_Y347]
Response line: false

Prompt line: Check the entry DGQSVYKLTDF [TBK1_Y153] : does phosphorylation enrichment equal or exceed 0.7?
Response line: false

Prompt line: In plain terms: is recorded phosphorylation enrichment at least 0.7 for YAFQLYDLDPD [CHP2_Y123_R127P] ?
Response line: true
